- tgt: HCV polymerase (NS5B) type 1a (Hepatitis C virus genotype 1a, UniProt P26664)
- Construct: made in house; host or cells: Escherichia coli (by the 'similar method' of the 1b enzyme)
- protocol_description: Assay of enzyme (HCV polymerase) inhibitory activity, type 1a enzyme
- Format: biochemical, HCV type 1a (cloned from the blood of patients)
- applied_conditions: HCV polymerase inhibitory activity (IC50), 1a, type 1a enzyme 1.5 μg/ml, 25° C., 60 min
Structures can show the parent of a compound that is named as a salt.
quantity_measured: IC50

Example entries and their recorded answers appear below.
[[record]]
compound = "CC(C)c1ccc(CNC(=O)[C@H]2CN(C(=O)CN)CCN2S(=O)(=O)c2ccc(C(F)(F)F)cc2)cc1 [Example 225, hydrochloride]"
quantity_measured = "IC50"
result = "100 to 1000 nM"

[[record]]
compound = "CCC(F)(F)c1ccc(CNC(=O)[C@H]2CN(c3cnc(-c4nnn[nH]4)cn3)CCN2S(=O)(=O)c2ccc(OC(F)(F)F)cc2)cc1"
quantity_measured = "IC50"
result = "< 100 nM"


# input for lookup
Please indicate IC50 recorded for CCCc1ccc(CNC(=O)[C@H]2CN(c3nc(C)c(C(=O)O)s3)CCN2S(=O)(=O)c2ccc(OC(F)(F)F)cc2F)cc1
< 100 nM

* * *

Some compounds, each annotated with its measured IC50.
- tgt: HCV polymerase (NS5B) type 1a (Hepatitis C virus genotype 1a, UniProt P26664)
- Construct: made in house; host or cells: Escherichia coli (by the 'similar method' of the 1b enzyme)
- protocol_description: Assay of enzyme (HCV polymerase) inhibitory activity, type 1a enzyme
- Format: biochemical, HCV type 1a (cloned from the blood of patients)
- applied_conditions: HCV polymerase inhibitory activity (IC50), 1a, type 1a enzyme 1.5 μg/ml, 25° C., 60 min
Where a name gives a salt, the structure may show the parent alone.

Please indicate IC50 recorded for COc1ccc(S(=O)(=O)N2CCN(C(C)=O)C[C@@H]2C(=O)NCc2ccc(C(C)C)cc2)cc1Cl [Example 216]
0.1 to 1 µM

Please indicate IC50 recorded for O=C(NCc1ccc(C(F)(F)F)cc1)[C@H]1CN(c2cnc3cncnc3n2)CCN1S(=O)(=O)c1ccc(OC(F)(F)F)cc1 [Example 660]
< 0.1 µM

Please indicate IC50 recorded for CCOC(=O)c1nnc(NC(=O)N2CCN(S(=O)(=O)c3ccc(OC(F)(F)F)cc3)[C@@H](C(=O)NCc3ccc(C(F)(F)CC)cc3)C2)s1 [Example 477]
> 1 µM

Please indicate IC50 recorded for CC(=O)N1CCN(S(=O)(=O)c2ccc(N)cc2)C(C(=O)NCc2ccc(C(F)(F)F)cc2)C1 (centres unmarked) [Example 93, hydrochloride]
> 1 µM

Please indicate IC50 recorded for CC(=O)N1CCN(S(=O)(=O)c2ccc(OC(F)(F)F)cc2)[C@@H](C(=O)NCc2ccccc2-c2ccccc2)C1 [Example 642]
> 1 µM

* * *

- tgt: HCV polymerase (NS5B) type 1b (Hepatitis C virus genotype 1b)
- Construct: a region encoding NS5B (J Virol 1991 March, 65(3), 1105-13, 544 amino acids after deletion of 47 amino acids on the C-terminal); 6xHis (C); made in house; host or cells: Escherichia coli
- protocol_description: Assay of enzyme (HCV polymerase) inhibitory activity, type 1b enzyme
- Format: biochemical, HCV BK strain (type 1b)
- applied_conditions: HCV polymerase inhibitory activity (IC50), 1b, type 1b enzyme 0.5 μg/ml, 25° C., 60 min
pIC50: −log10 of the molar value.
Some compounds, each annotated with its measured pIC50.

Example entries and their recorded answers appear below.
[[record]]
compound = "CC(=O)N1CCN(S(=O)(=O)c2ccc(C(C)C)cc2)C(C(=O)NCc2ccc(Br)cc2)C1 (centres unmarked) [Example 54]"
tgt = "HCV polymerase (NS5B) type 1b (Hepatitis C virus genotype 1b)"
quantity_measured = "pIC50"
result = "< 6.00"

[[record]]
compound = "CC(C)c1ccc(CNC(=O)[C@H]2CN(c3n[nH]c(C(=O)O)c3Cl)CCN2S(=O)(=O)c2ccc(C(F)(F)F)cc2)cc1 [Example 427]"
tgt = "HCV polymerase (NS5B) type 1b (Hepatitis C virus genotype 1b)"
quantity_measured = "pIC50"
result = "< 6.00"

[[record]]
compound = "CC(=O)N1CCN(S(=O)(=O)c2ccc(C(C)C)cc2)[C@@H](C(=O)NCc2ccc(C3CC3)cc2)C1 [Example 280]"
tgt = "HCV polymerase (NS5B) type 1b (Hepatitis C virus genotype 1b)"
quantity_measured = "pIC50"
result = "6.00 to 7.00"


Please indicate pIC50 recorded for CCC(F)(F)c1ccc(CNC(=O)[C@H]2CN(C(=O)Cc3cc(C)no3)CCN2S(=O)(=O)c2ccc(OC(F)(F)F)cc2)cc1 [Example 480]
> 7.00

* * *

- tgt: HCV polymerase (NS5B) type 1a (Hepatitis C virus genotype 1a)
- Construct: made in house; host or cells: Escherichia coli (by the 'similar method' of the 1b enzyme)
- protocol_description: Assay of enzyme (HCV polymerase) inhibitory activity, type 1a enzyme
- Format: biochemical, HCV type 1a (cloned from the blood of patients)
- applied_conditions: HCV polymerase inhibitory activity (IC50), 1a, type 1a enzyme 1.5 μg/ml, 25° C., 60 min
- Protocol: The evaluation of the HCV polymerase inhibitory activity of the compound of the present invention is explained in the following. This polymerase is an enzyme coded for by the non-structural protein region called NS5B on the genome RNA of HCV. i) Preparation of Enzyme (HCV Polymerase) […] The HCV polymerase inhibitory activity (IC50) of the compound of the present invention was calculated from the values of radioactivity of the enzyme reaction with and without the test substance. […]
Some molecules, each annotated with its measured IC50.

[[record]]
chemical_smiles = "CC(=O)N1CCN(S(=O)(=O)c2ccc(C(C)(C)C)cc2)[C@@H](C(=O)NCc2ccc(C(C)C)cc2)C1"
tgt = "HCV polymerase (NS5B) type 1a (Hepatitis C virus genotype 1a)"
quantity_measured = "IC50"
result = "< 100 nM"


Please indicate IC50 recorded for CCC(F)(F)c1ccc(CNC(=O)[C@H]2CN(c3cnc4cncnc4n3)CCN2S(=O)(=O)c2ccc(OC(F)(F)F)cc2)cc1
< 100 nM

Please indicate IC50 recorded for Cc1nnn(CC(=O)N2CCN(S(=O)(=O)c3ccc(OC(F)(F)F)cc3)[C@@H](C(=O)NCc3ccc(C(F)(F)C(F)(F)F)cc3)C2)n1
100 to 1000 nM

* * *

- tgt: HCV polymerase (NS5B) type 1b (Hepatitis C virus genotype 1b, UniProt P26663)
- Construct: a region encoding NS5B (J Virol 1991 March, 65(3), 1105-13, 544 amino acids after deletion of 47 amino acids on the C-terminal); 6xHis (C); made in house; host or cells: Escherichia coli
- protocol_description: Assay of enzyme (HCV polymerase) inhibitory activity, type 1b enzyme
- Assay type: biochemical, HCV BK strain (type 1b)
- applied_conditions: HCV polymerase inhibitory activity (IC50), 1b, type 1b enzyme 0.5 μg/ml, 25° C., 60 min
quantity_measured: IC50

[[record]]
molecule = "COC(=O)c1ccc(N2CCN(S(=O)(=O)c3ccc(C(F)(F)F)cc3)[C@@H](C(=O)NCc3ccc(C(C)C)cc3)C2)nc1 [Example 303]"
tgt = "HCV polymerase (NS5B) type 1b (Hepatitis C virus genotype 1b, UniProt P26663)"
result = "< 100 nM"

[[record]]
molecule = "CC(C)(C)OC(=O)N1CCc2nc(N3CCN(S(=O)(=O)c4ccc(OC(F)(F)F)cc4)[C@@H](C(=O)NCc4ccc(C(C)(C)C)cc4)C3)sc2C1 [Example 587]"
tgt = "HCV polymerase (NS5B) type 1b (Hepatitis C virus genotype 1b, UniProt P26663)"
result = "< 100 nM"

[[record]]
molecule = "CCC(C)(C)c1ccc(S(=O)(=O)N2CCN(C(C)=O)CC2C(=O)NCc2ccc(C(F)(F)F)cc2)cc1 (stereo not shown) [Example 97]"
tgt = "HCV polymerase (NS5B) type 1b (Hepatitis C virus genotype 1b, UniProt P26663)"
result = "> 1000 nM"


Please indicate IC50 recorded for CCOC(=O)CCCCCC(=O)N1CCN(S(=O)(=O)c2ccc(C(F)(F)F)cc2)[C@@H](C(=O)NCc2ccc(C(C)C)cc2)C1 [Example 316]
100 to 1000 nM

Please indicate IC50 recorded for CC(C)c1ccc(CNC(=O)[C@H]2CN(c3cnc(N)cn3)CCN2S(=O)(=O)c2ccc(C(F)(F)F)cc2)cc1 [Example 471]
< 100 nM

Please indicate IC50 recorded for CC(C)(C)c1ccc(CNC(=O)[C@H]2CN(c3nc4c(s3)CNCC4)CCN2S(=O)(=O)c2ccc(OC(F)(F)F)cc2)cc1 [Example 588]
< 100 nM

Please indicate IC50 recorded for CC(C)c1ccc(S(=O)(=O)N2CCN(C3=NCCS3)CC2C(=O)NCc2ccc(C(F)(F)F)cc2)cc1 (stereo not shown) [Example 112]
> 1000 nM

Please indicate IC50 recorded for CCc1ccc(CNC(=O)[C@H]2CN(c3nc(C)c(C(=O)O)s3)CCN2S(=O)(=O)c2ccc(OC(F)(F)F)cc2)cc1 [Example 366]
< 100 nM

Please indicate IC50 recorded for CCCc1ccc(CNC(=O)[C@H]2CN(c3cnc(N)cn3)CCN2S(=O)(=O)c2ccc(OC(F)(F)F)cc2)cc1 [Example 530]
< 100 nM
